All figures here come from PubChem BioAssay (NCI).

# testDetails: NCI Yeast Anticancer Drug Screen. Data for the sgs1 mgt1 strain (AID 161)
# cond: S. cerevisiae sgs1 mgt1 strain, at 5.0 µM (retest, dose inferred, filed as 0.5)
About 79,000 compounds went through this panel and 15% of them were active in at least one assay; those are over-represented in the sample as a whole. Activity calls are given as the source filed them. No stated cut-off is given here; in the data, active means growth inhibition above about 70%; inactive means the rest.
Outcome codes: active, inactive

> print(dat)
                                    compound  qualitativelabel
 1            COc1cc(/C=C\[N+](=O)[O-])ccc1O          inactive
 2  C[N+](C)(C)CC1Cc2ccccc2C1=O (stereo not given)          inactive
 3           O=[N+]([O-])/C=C/c1c(Cl)cccc1Cl            active
 4               C/C(=N/NC(N)=S)c1ccc(Cl)cc1          inactive
 5  CN(C)c1ccc(/C=C/c2cc3scc(-c4ccccc4)[n+]3c3ccccc23)cc1          inactive
 6  CN(C)c1ccc(N=Nc2cccc(C(=O)[O-])c2)cc1.CN(C)c1ccc(N=Nc2cccc(C(=O)[O-])c2)cc1.NC1CCCCC1N.O=[N+]([O-])O.[Pt+4]          inactive
 7  CCOC(=O)CNC(=O)C1C2c3ccccc3C(c3ccccc32)C1C(=O)O (stereo not given)          inactive
 8  COc1cc(C(CC(=O)N(CCCl)CCCl)c2ccc3c(c2)OCO3)cc(OC)c1OC (stereo not given)          inactive
 9  O=C([CH-]C(=O)c1ccccc1)c1ccccc1.O=C([CH-]C(=O)c1ccccc1)c1ccccc1.[La+3].[OH-].[OH3+]          inactive
10  COc1ccc(C[C@H]2NC[C@H](O)[C@H]2OC(C)=O)cc1          inactive
11                         O=C(CBr)Nc1ccccc1          inactive
12  O=[N+]([O-])O.c1ccc([As+](c2ccccc2)(c2ccccc2)c2ccccc2)cc1          inactive
13                        O=[N+]([O-])O.[In]          inactive
14      C/C(=N\NC(=S)N1CC2CCC(CC2)C1)c1nccs1            active
15  CCN1CCC(O)(c2ccc(Cl)cc2)C(C(=O)c2ccc(Cl)cc2)C1 (stereo not given)          inactive
